Source listed as the nanobody polyreactivity screen of Harvey et al. (2022).

assay: yeast display, Sf9 membrane polyspecificity reagent, FACS + sequencing; frameworks hold sequencing errors
QUANTITY_NAME: polyreactivity (PSR sort gate)

1) QVQLEESGGGLVQAGGSLRLSCAASGLTIFVNAMGWYRQAPGKERELVATISGGGSTYYADSVKARFTISRDNAKNTVYLQMNSLKPEDTAVYYCATVWPHRFRYEYWGQGTQVTVSS; low polyreactivity
2) QVQLVESGGSLVQAGGSLRLSCAASGSIFFYYAMGWYRQAPGKERELVAAISWSGGSTYYADSVKGRFTISRDNAKNTVYLQMNSLKPEDTAVYYCAADRPYAGRYWKGYHSALYDYWGQGTQVTVSS; low polyreactivity

---

test: yeast display, Sf9 membrane polyspecificity reagent, FACS + sequencing; frameworks hold sequencing errors
QUANTITY_NAME: polyreactivity (PSR sort gate)

Known results for sequences:
1) QDHLVESGGGLVEARGSLRLSCAASGFIFRGYAMGWYRQAPGKERELVAAINSGGSTNYADSVKGRFTISRDNAKNTVYLQMNSLKPEDSAVYYCAARWRSWRYKDDYWGQGSQVTVSS; high polyreactivity
2) QVQLVESCVGLVQAGGSLRLSCAASGRIFSRYAMGWYRQAPGKERELVADITWSGGRPYYADSVKGRFTISRDNAKNTVYLQMNSLKPEDTAVYDCAATGGFSWSRDYWGLGTQVTVSS; low polyreactivity
3) QVQLVESGGGLVQAGGSLRLSCAASGIIFDWYDMGWYRQAPGKERELVATITSDDGTNYADSVKGRFTIARDNAKNTVYFQLNSLKPEDTAVYYCAKRLIPSLPILQKMDYWGQGTQVTVSS; low polyreactivity
4) QVQLVQSAAGLVHAGGSLRLSCAASGIIFYGYAMVSYRQAPGKERELVAAITSYDGSTYYADSVKGRFTISRDNAKNTVYLQMNSLKPEDTAEYYCAADYSTYEGWYWFDYWGQGSQVTVSS; high polyreactivity

Please find the next sequence below.
Name the recorded polyreactivity (PSR sort gate) for `QVQLVESGGGLVQAGGSLRLSCAASGIIFWSYVMGWYRQAPGKERELVAAITFSGGSTYYADSVKGRFTISRDNAKNTVYLQMNSLKPEDTAVYYCAARYKLVRRYDYWGQGTQVTVSS` .
low polyreactivity

---

assay: yeast display, Sf9 membrane polyspecificity reagent, FACS + sequencing; frameworks hold sequencing errors
QUANTITY_NAME: polyreactivity (PSR sort gate)

1) QVQLVESGGGLVQAGGSLRLSCAASGITFDLYAMGWYRQAPGKERELVAAISISSTSTYYADSVKGRFTISRDNAKNTVYLQMNSLKPEDTAVYYCNAVPSSKTFWFDYWGQGTQVTVSS; low polyreactivity
2) QVQLVESGGGLVQAGGSLRLSSAASGSTFDDYVMGWYRQAPGKERELVAGINSRGTSTDYADSVKGRFTISRDNAKNTVYLQMNSLKPEDTAVYYCNAESPSGRLFDDAYENDYWGQGTQVTVSS; low polyreactivity
3) QVQLVESGGGLVQAGGSLRLSCAASGRIFIHYAMGWYRQAPGKERELVAAISWGGGRTYYADSVKGRFTISRDNAKNTVYLQMNSLKPEDTAVYYCAAAGRGSGYDYWGQGTQVTVSS; high polyreactivity
4) QVQLVESGGGLVQAGGSLRLSCAASGRTLGVYAMGWSRQAPGKERELVAAIRYRGGITYYADSVKGRFTISRDNAKNTVYLQMNSLKPEDTAVYYCAADWAWDTKSAPAYPRAYDYWGQGTQVTVSS; low polyreactivity
5) QVQLVESGGGLVQAGGSLRLSCAASGRICEVYAMGWYRQAPGKERELVAAINSGGSTRYADSVKGRFTISRDNAKNTVYLQMNSLKPEDTAVYYCNARPGYYRYLRGYNYWGQGTQVTVSS; low polyreactivity

Please state, for each entry, its recorded polyreactivity (PSR sort gate).
1. QVQLVESGGGLVQAGGSLRLICAASGRIFGYYVMGWSRQSPGKERQLVAAIRSSADSTYYADSVKGRFTISRDNAKNTVYLQMNSLKPEDTAVYYCAAQSPAYYTKSYWGQGTQVTVSS
2. QVQLVESGGGLFQAGGSLRLSCAASGTFYIYAMGWYRQAPGKERELVAGISFSGGSTYYADSVKGRFTISRDNAKNTVYLQMNSLKPEDTAVYYCAAELYVLPYDYWGQGTQVTVSS
3. QVQLVDSGGGLVQAGGSLRLSCAASGNIFRANAMGWYRQAPGKERELVAAIRWRGVGTYYADSVKGRFTISRDYAKNTVYLQINSLKPEDTAVYYCAAYVKTGAYDYWGQGTLVTVSS
4. QVQLVESGGGLVQAGGSLRLSCAASGRIFGAYAMGWYRQAPGKERELVAAINRGGSTNYADSVKGRFTISRDNAKNTVYLQMNSLKPEDTAVYYCAKRSSGRHFTYDYWGQGTQVTVSS
5. QVQLVESGGGLVQAGGSLRLSCSASGRIFRYNGKGWYRQAHGKERELVAVITHRSGTTSYADSVKGRFTISRDNAKNTVYLQMNSLKPEDTAVYYCARGYYKPSVGKSKRVGGNYLGQGTQVTVSS
6. QVQLVESGGGLVQAGGSLRLSCAASGSIFGLYAMGWSRQAPGKERELVASITGGGGTYYADSVKGRFTISRDNAKNTVYLQMNSLKPEDTAVYYCAAALYFGGDSYYYWGQGTQVTVSS

low polyreactivity
high polyreactivity
high polyreactivity
low polyreactivity
high polyreactivity
low polyreactivity

---

assay: yeast display, Sf9 membrane polyspecificity reagent, FACS + sequencing; frameworks hold sequencing errors
QUANTITY_NAME: polyreactivity (PSR sort gate)

Known results for sequences:
1) QDQLVESGGGLVQAGGSLRLSCAASGLIFVRYAMGWYRQAPGKERELVATITWSGGTTYADSVKGRFTISRDNAKKTVYLQMNSLNPEDTAVYYCAVASGPELDYWGQGTQVTVSS; low polyreactivity
2) QVQLVESGGGLVQAGGSLRVSCAASGLTFKINAMGWYRQEPGKERELVAAITWNGGRTYYADSVKGRFTISRDNAKNTVYLQMNSLKPEDTAVYYCAADGKYYHRRPGWPIYDYWGQGTQVTVSS; high polyreactivity
3) QVQLVESGGGIVQAGGSLSLSCAASGSTFSIYAMGWSRQATGTEREVVAAISGSGSRTYYADSVKGRFTISRDNEKNSVYLQMNMLKPEDTAVYYCAALGRHRDGFDFNYWGQGTQVTLSS; high polyreactivity
4) QVQLVESGGGLVQAGGSLRLSCAASGRIFDNYAMGWYRQAPGKERELVAAITYIDSGTYYADSVKGRFTISRDNAKNTVYLQMNSLKPEDTAVYYCAVRLNSDSKRKTQKYGYWGQGTQVTVSS; low polyreactivity
5) QVQLVESGGLLVQAGGSLRLSCAASGFIFNQYAMGWDRQAPAKVREFVAGISWSGGATYYADSVKGRFTISRDNAKNTVYLQMNSLKPEETAVYYCAADRTYSFYYTQGYEYWGQGTHVTVSS; low polyreactivity
6) QVQLVQSGGGLVQAGGSLRLSCAASGSTFPTNAMGWYRQAPGKERELVAAITSTGSTYADSVKGRFTISRDNAKNTVYLQMNSLKPEDTAVYYCAADTQWTTPYDYWGQGTQVTVSS; low polyreactivity
7) QDQLVESGGGLVQARVSLRLSSAASGFIFRWNTMGWYRQAPGKERELVAAISSRGGSTYYAYSVKGRFKISRDNAKNTVYLQMNSLKPEDTAVYYCNAVRGDEYWGQGTQVTVSS; high polyreactivity
8) QVQLVESGGGLVQAGGSLRLSCAASGFIFVRYAMGWYRQAPGKERELVAAISSSGGTTNYADSVKGRFTISRDNAKNTVYLQMNSLKPEDTAVYYCAAYVYQTPHSLHIYDYWGQGTQVTVSS; low polyreactivity

Please state, for each entry, its recorded polyreactivity (PSR sort gate).
1. QVQLVESGGGLVQAGGSLRLSCAASGRIFRFYTMAWYRQAPGKERELVAAITQRGGRTYYADSVKGRFTISRDNAKNTVYLLMNSLKPEDTAVFYCAATTTVAEYDYWGQGTQVTVSS
2. QVQLVESGGGLVQAGGSLRLSCAASGFTFSTYAMGWYRQAPGKESELVAAITRSGGSTYYADSVKGRFTISRDIEKNTVYLQMNSLKQEDTAVYYCATDASFYDPDLYPYGYDYWGQGTQVTVSS
3. QVQLVESGGGLVQAGGSLRLSCAASGIIFEPYAMGWYRQAPGKERELVASIRWSDGSTFYADSVKGRFTISRDNAKNTVYLQMNSLKPEDTAVYYCNAVYEHRRVGWVTIDYGYWGQGSQVTVSS

high polyreactivity
high polyreactivity
low polyreactivity

---

experiment: yeast display, Sf9 membrane polyspecificity reagent, FACS + sequencing; frameworks hold sequencing errors
QUANTITY_NAME: polyreactivity (PSR sort gate)

1. QVQLVESGGGLVQAGGSLRLSCAASGITIKAYAMGWYRQAPGKERELVAAISGSGGSTYYADSVEGRFTISRDNAKNTVYLQMNSLKPEDTAVYYCAARAVSLTGYRFGYWGQGTQVTVSS; high polyreactivity
2. QDQLVESGGGLVQAGGSLRLSCAASGFTLHVYAMGWYRQAPGKERELVAAISTGGNTNYGDSVKGRFTISRDNAKNTVYLQMNSLKPEDTAVYYCNARYTSRRSRRPYYYWGQGTQVTVSS; high polyreactivity
3. QVQLVESGGGLVQAGGSLRFSCAASGSTFPYYAMGLYRQAPGKERELVATITKRGGRTYYADSVKGRFTISRDNAKNTVYLQMISLKPEDTAVYYCAARYRFAVTYEYWGQGTQVTVSS; high polyreactivity
4. QVQLVESGGGLVQAGGSLRLSCAASGSTFVRYAMGWDRQAPGTEGSWVAAISVDGDSTYYADSVKGRFTISRDNAKNTVYFQLNSLKPEDTAVYYCNVPLWDYYPRFPLHDYWGQGTQVTVSA; low polyreactivity

Please find the next sequence below.
Name the recorded polyreactivity (PSR sort gate) for `QVQLVESGGGLVQAGGSLRLSCAASGFTFWFNAMGWYRQAPGKEREFVATISYSGASTYYADSVKGRFTISRDNAKNTVYLQMNSLKPEDTAVYYCAAANYDFYAFDSTYRYNYWGQGTQVTVSS` .
low polyreactivity
